# target-or-system: T1, human Aβ peptide (1-40) biotinylated at the C terminus (human, UniProt P05067 672-711, biotinylated at the C-terminus)
# T1 construct: domain: β-amyloid peptide (1-40); Numbers 1-40 count on the β-amyloid peptide, not on APP; also called beta-amyloid 1-40 peptide (biotinylated at the C-terminus); streptavidin-captured beta-amyloid (1-40)
# T1 sequence (P05067 672-711 limits assumed): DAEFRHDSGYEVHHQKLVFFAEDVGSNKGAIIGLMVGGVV
# procedure-text: competition ELISA, biotinylated human Aβ (1-40) on streptavidin plate; competitor: mouse 2E7 at constant concentration; Experiment 2
assay-endpoint: IC50

Study these solved cases before continuing.
binder | IC50
Humanised 2E7 variant H2L1 (antibody, human IgG1, kappa, V domains shown, Human IgG1 with L235A and G237A, human kappa; also called L1+H2; H2L1 whole IgG) VH: EVQLVESGGGLVQPGGSLRLSCAVSGFTFSDNGMAWVRQAPGKGLEWVSFISNLAYSIDYADTVTGRFTISRDNAKNSLYLQMNSLRAEDTAVYYCVSGTWFAYWGQGTLVTVSS VL: DIVMTQSPLSLPVTPGEPASISCRVSQSLLHSNGYTYLHWYLQKPGQSPQLLIYKVSNRFSGVPDRFSGSGSGTDFTLKISRVEAEDVGVYYCSQTRHVPYTFGGGTKVEIKR | 1.66 µg/mL
Humanised 2E7 variant H3L1 (antibody, human IgG1, kappa, V domains shown, Human IgG1 with L235A and G237A, human kappa; also called L1+H3) VH: EVQLVESGGGLVQPGGSLRLSCAASGFTFSDNGMAWVRQAPGKGLEWISFISNLAYSIDYADTVTGRFTISRDNAKNSLYLQMNSLRAEDTAVYYCVSGTWFAYWGQGTLVTVSS VL: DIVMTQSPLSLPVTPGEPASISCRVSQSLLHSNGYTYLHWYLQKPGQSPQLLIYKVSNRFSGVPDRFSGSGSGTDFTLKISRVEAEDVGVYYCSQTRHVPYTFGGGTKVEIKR | 1.39 µg/mL

IN: Can you share its IC50? I mean this binder: Chimeric 2E7 antibody (2E7c) (antibody, human IgG1, V domains shown, Parent murine V regions on human IgG1 (L235A, G237A) and human C kappa; also called 2E7c Chimera; not shown: human IgG1 heavy chain constant region, Fc mutated (L235A, G237A); human C kappa constant region) VH: EVKLVESGGGLVQPGGSLKLSCAVSGFTFSDNGMAWVRQAPRKGPEWIAFISNLAYSIDYADTVTGRFTISRDNAKNTLYLEMSSLRSEDTAMYYCVSGTWFAYWGQGTLVTVSA VL: DVVLTQTPLSLPVSLGDQASISCRVSQSLLHSNGYTYLHWYLQKPGQSPKLLIYKVSNRFSGVPDRFSGSGSGTDFTLKISRVEAEDLGVYFCSQTRHVPYTFGGGTKLEIK
OUT: 1.29 µg/mL
